System: Saccharomyces cerevisiae;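 note: PSI is a weighted mean of sequencing reads over stability bins, variants kept only with over 10 reads, mCherry proximal and sfGFP distal, peptide attached via GGGS linker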
assayProtocol: protein stability index of tFT-peptide fusion (C-terminal peptide) (PSI (0-1 scale)); higher = more stable (slower turnover)
particulars: genetic background: das1 deletion; temperature: 30 C
propertyName: protein stability index

Illustrative cases are given below, each with its answer.
FILATGKGRWVV; 0.636
ISHLQCFFVVML; 0.355
CGLLSALSCLVF; 0.442
VFLLFFFGLFVF; 0.295
RKNSQKILKLSG; 0.64
SVFGLLSVCFFY; 0.385

Can you look up the measured protein stability index of RYQDLSDWRRIS for me?
0.629

Can you look up the measured protein stability index of PGRHSVRFVFVC for me?
0.444

Can you look up the measured protein stability index of GAVKCLVCLAVW for me?
0.309
